# measurement target: C-C chemokine receptor type 5 (Homo sapiens)
# Sequence (P51681 whole entry): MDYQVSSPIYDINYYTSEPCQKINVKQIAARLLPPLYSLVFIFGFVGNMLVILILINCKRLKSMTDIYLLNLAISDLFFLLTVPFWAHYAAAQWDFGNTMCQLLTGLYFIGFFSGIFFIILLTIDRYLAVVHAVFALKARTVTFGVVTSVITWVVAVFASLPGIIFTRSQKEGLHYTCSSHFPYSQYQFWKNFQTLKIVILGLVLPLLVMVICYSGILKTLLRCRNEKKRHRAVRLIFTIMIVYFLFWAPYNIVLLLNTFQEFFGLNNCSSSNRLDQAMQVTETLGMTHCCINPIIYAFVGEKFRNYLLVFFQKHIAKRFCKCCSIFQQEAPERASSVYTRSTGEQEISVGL
# experimental protocol: Inhibition of [125I]-labeled RANTES binding to C-C chemokine receptor type 5
Quick reference: Ki of the listed items.
Kindly answer with a numeric value in nM, unit omitted.

Answered cases to consult:
| smiles record | unit info | endpoint result |
| --- | --- | --- |
| C[C@H]1CN(C2CCN(C(=O)c3c(F)cccc3F)CC2)CCN1[C@@H](C)c1ccc(S(=O)(=O)c2ccc3c(c2)OCO3)cc1 | nM | 230 |
| Cc1cccc(C)c1C(=O)N1CCC(N2CCN([C@@H](C)c3ccc(Cc4ccc5c(c4)OCO5)cc3)[C@@H](C)C2)CC1 | nM | 18 |

Readout Ki for "C[C@H]1CN(C2CCN(C(=O)c3c(N)cccc3Cl)CC2)CCN1[C@@H](C)c1ccc(S(=O)(=O)c2ccc3c(c2)OCO3)cc1" , test system C-C chemokine receptor type 5 (Homo sapiens), was 32

Ki value, target or system C-C chemokine receptor type 5 (Homo sapiens), for "Cc1cccc(C)c1C(=O)N1CCC(N2CCN(Cc3ccc(Cc4ccc5c(c4)OCO5)cc3)[C@@H](C)C2)CC1" : 44

Simply: "Cc1cccc(C)c1C(=O)N1CCC(N2CCN([C@@H](C)c3ccc(S(=O)(=O)c4ccc5c(c4)OCO5)cc3)[C@@H](C)C2)CC1" , C-C chemokine receptor type 5 (Homo sapiens), Ki = 28

Given the compound "Cc1cccc(C)c1C(=O)N1CCC(N2CCN(Cc3ccc(Cc4ccc5c(c4)OCO5)cc3)CC2)CC1" and test system C-C chemokine receptor type 5 (Homo sapiens), the measured Ki is 352

Assay C-C chemokine receptor type 5 (Homo sapiens), sample "Cc1cccc(C)c1C(=O)N1CCC(N2CCN(Cc3ccc(S(=O)(=O)c4ccc5c(c4)OCO5)cc3)[C@@H](C)C2)CC1" , Ki read: 74

###

# experimental protocol: Antiviral activity was measured as inhibition of the growth of primary HIV-1 isolate (US-1) in human peripheral blood mononuclear cells
# Format: functional
outcome measure: pIC50
Just the number, please; pIC50 means minus log10 of the concentration in mol/L.

Value of pIC50 reported for the compound "Cc1cccc(C)c1C(=O)N1CCC(N2CCN([C@@H](C)c3ccc(Cc4ccc5c(c4)OCO5)cc3)[C@@H](C)C2)CC1" is 8.10

###

# measurement target: C-C chemokine receptor type 5 (Homo sapiens)
# experimental protocol: Ability to inhibit [125I]-labeled RANTES binding to C-C chemokine receptor type 5 expressed in membrane preparation of CHO cells
# Assay type: cell membranes
outcome measure: pKi
Interpret pKi as the negative base-10 log of the concentration measured in mol/L.

Record "Cc1cccc(N)c1C(=O)N1CCC(N2CCN([C@@H](C)c3ccc(S(=O)(=O)c4ccc5c(c4)OCO5)cc3)[C@@H](C)C2)CC1" , field pKi: 7.51

###

# measurement target: C-C chemokine receptor type 5 (Homo sapiens)
# experimental protocol: Inhibition of [125I]-labeled RANTES binding to C-C chemokine receptor type 5
outcome measure: Ki (nM)
Hi! Could you send only the number? It should be in nM, unit omitted.

| smiles record | measurement target | endpoint result |
| --- | --- | --- |
| C[C@H]1CN(C2CCN(C(=O)c3c(Cl)cccc3Cl)CC2)CCN1[C@@H](C)c1ccc(S(=O)(=O)c2ccc3c(c2)OCO3)cc1 | C-C chemokine receptor type 5 (Homo sapiens) | 49 |

The compound listed as "Cc1cccc(C)c1C(=O)N1CCC(N2CCN([C@@H](C)c3ccc(S(=O)(=O)c4ccc5c(c4)OCO5)cc3)CC2)CC1" shows Ki equal to 442

Entry under test: "Cc1cccc(C)c1C(=O)N1CCC(N2CCN([C@@H](C)c3ccc(Cc4cccc(Cl)c4)cc3)[C@@H](C)C2)CC1" . Its Ki was 45
